target: P110 δ/Pi3K δ (Homo sapiens); test: Fluorescent (HTRF) determination of PI3K enzyme activity, δ isoform; type: biochemical
Sequence (O00329 whole entry, canonical isoform): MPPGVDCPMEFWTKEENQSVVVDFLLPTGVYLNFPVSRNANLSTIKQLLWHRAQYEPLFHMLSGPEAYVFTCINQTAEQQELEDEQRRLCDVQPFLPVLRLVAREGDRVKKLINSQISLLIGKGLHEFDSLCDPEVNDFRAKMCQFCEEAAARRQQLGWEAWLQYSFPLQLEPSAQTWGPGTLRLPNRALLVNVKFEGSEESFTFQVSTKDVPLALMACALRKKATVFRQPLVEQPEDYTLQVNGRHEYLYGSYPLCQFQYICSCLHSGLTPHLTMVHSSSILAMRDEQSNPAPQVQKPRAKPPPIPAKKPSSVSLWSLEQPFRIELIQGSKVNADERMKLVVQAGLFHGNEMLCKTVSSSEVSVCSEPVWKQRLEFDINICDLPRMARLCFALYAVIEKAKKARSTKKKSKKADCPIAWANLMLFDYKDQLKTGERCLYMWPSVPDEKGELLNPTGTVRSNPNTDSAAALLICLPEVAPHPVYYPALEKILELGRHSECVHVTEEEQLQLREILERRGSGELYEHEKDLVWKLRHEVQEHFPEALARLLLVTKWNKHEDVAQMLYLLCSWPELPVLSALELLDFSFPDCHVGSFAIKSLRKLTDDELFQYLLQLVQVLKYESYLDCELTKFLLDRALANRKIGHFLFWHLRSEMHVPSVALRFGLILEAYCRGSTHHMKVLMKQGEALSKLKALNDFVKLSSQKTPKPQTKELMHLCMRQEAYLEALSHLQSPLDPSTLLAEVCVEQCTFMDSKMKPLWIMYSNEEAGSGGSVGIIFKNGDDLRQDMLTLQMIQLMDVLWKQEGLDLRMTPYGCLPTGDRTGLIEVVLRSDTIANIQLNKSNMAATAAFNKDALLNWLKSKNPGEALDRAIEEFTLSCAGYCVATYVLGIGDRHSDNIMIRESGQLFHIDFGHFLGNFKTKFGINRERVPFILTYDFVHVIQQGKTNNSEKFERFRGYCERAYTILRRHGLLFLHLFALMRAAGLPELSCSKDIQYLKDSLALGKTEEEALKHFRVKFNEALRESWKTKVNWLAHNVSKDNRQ
Sequence (P27986 whole entry partner, canonical isoform): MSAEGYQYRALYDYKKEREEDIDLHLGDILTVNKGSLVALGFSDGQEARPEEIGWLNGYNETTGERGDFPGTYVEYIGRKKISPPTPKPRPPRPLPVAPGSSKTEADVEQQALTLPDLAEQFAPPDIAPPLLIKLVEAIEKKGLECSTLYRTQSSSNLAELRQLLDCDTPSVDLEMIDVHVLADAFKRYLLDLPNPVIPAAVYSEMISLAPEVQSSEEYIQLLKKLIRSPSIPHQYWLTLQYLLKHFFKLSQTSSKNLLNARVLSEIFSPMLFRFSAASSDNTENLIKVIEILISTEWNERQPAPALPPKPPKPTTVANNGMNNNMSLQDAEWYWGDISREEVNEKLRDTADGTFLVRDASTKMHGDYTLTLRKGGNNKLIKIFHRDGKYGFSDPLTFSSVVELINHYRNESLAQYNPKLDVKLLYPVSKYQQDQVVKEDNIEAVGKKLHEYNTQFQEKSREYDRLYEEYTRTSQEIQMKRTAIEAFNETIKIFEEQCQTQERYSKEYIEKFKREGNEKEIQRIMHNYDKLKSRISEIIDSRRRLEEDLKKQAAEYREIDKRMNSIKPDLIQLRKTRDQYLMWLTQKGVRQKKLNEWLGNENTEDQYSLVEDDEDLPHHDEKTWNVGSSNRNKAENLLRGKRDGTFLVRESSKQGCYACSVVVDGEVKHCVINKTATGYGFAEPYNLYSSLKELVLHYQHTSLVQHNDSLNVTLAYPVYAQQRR
The compounds listed here are annotated with their inhibition at 1 µM.

> print(dat)
                                   compound   recorded.endpoint  data.value
1  CC(c1oc2ccccc2c(=O)c1-c1ccccc1)n1nc(-c2cccc(O)c2)c2c(N)ncnc21 (stereo not shown) [Example 42]  inhibition at 1 µM  50 to 100%

Param item = Nc1ncnc2c1c(-c1ccc3cn[nH]c3c1)nn2Cc1oc2ccccc2c(=O)c1-c1ccccc1 [Example 75] ; retrieve measured inhibition at 1 µM.
50 to 100%

Param item = Nc1ncnc2c1ncn2Cc1oc2ccc(Br)cc2c(=O)c1-c1ccccc1F [Example 29] ; retrieve measured inhibition at 1 µM.
< 50%

Param item = C[C@H](Nc1ncnc2[nH]cnc12)c1oc2ccccc2c(=O)c1-c1cccc(F)c1 [Example 47] ; retrieve measured inhibition at 1 µM.
50 to 100%
